# TARGET: Alpha-2A adrenergic receptor (Homo sapiens, UniProt P08913)
# Sequence (P08913 whole entry): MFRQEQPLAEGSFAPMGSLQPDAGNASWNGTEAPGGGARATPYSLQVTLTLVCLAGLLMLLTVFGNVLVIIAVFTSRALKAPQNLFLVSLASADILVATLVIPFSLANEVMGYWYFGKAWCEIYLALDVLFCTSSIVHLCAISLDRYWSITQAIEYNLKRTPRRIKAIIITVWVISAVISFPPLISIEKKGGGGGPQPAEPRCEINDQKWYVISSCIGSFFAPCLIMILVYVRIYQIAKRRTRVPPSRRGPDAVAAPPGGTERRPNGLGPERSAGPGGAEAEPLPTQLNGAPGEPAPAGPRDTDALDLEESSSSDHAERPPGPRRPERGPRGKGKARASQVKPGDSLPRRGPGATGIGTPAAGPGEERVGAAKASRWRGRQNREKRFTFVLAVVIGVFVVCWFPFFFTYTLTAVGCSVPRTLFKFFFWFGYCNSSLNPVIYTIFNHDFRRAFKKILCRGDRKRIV
Reported Ki by item:
Include the unit after the number when you answer.

See these solved cases before continuing.
c1ccc(-c2ccccc2C2OC2C2=NCCN2)cc1 (cis isomer) = 1230 nM
CC(Oc1ccccc1-c1ccncc1)C1=NCCN1 (configuration not stated) = 282 nM
CC(Oc1ccccc1-c1ccccc1)C1=NCCO1 (configuration not stated) = 8130 nM

Identify measured Ki associated with CC(Oc1ccccc1-c1ccc([N+](=O)[O-])cc1)C1=NCCN1 (configuration not stated)
123 nM

Identify measured Ki associated with CC(Nc1ccccc1-c1ccccc1)C1=NCCN1 (configuration not stated)
91.2 nM

Identify measured Ki associated with CC(Oc1ccccc1-c1ccccc1O)C1=NCCN1 (configuration not stated)
309 nM

Identify measured Ki associated with Cc1ccccc1-c1ccccc1OC(C)C1=NCCN1 (configuration not stated)
46.8 nM

Identify measured Ki associated with CC(Oc1ccccc1-c1cccc(O)c1)C1=NCCN1 (configuration not stated)
27.5 nM

Identify measured Ki associated with CC(Oc1ccccc1-c1ccccc1)C1=NCCC1 (configuration not stated)
8130 nM

Identify measured Ki associated with CC(Oc1ccccc1-c1cccc([N+](=O)[O-])c1)C1=NCCN1 (configuration not stated)
60.3 nM

Identify measured Ki associated with c1ccc(-c2ccccc2C2OC2C2=NCCN2)cc1 (configuration not stated)
1510 nM

Identify measured Ki associated with CC(Oc1ccccc1-c1ccccc1)C1=NCCN1 (configuration not stated)
47.9 nM
